Parameter: glycan array binding signal (z-score). Scope: all listed entries.
EXPERIMENTAL_SYSTEM: GlcNAc(a1-4)Gal(b1-4)GlcNAc(b1-3)Gal(b1-4)GlcNAc(b1-3)Gal(b1-4)GlcNAc
ASSAY_PROTOCOL: glycan array binding signal (z-score within array); higher = stronger binding
REPORTED_CONDITIONS: glycan notation: IUPAC condensed, linker removed
This is one part of a sample in which the strongest signals are shown more often than they occur.
VALUE_TYPE: glycan array binding signal (z-score)

[
  {
    "BINDER": "HPA (Helix pomatia), Q575S3 (protein) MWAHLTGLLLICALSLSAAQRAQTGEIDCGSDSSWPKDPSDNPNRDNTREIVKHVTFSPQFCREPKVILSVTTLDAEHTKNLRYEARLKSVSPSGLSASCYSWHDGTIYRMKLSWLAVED",
    "NUMERIC_RESULT": 4.21
  },
  {
    "BINDER": "RVL (Remusatia vivipara), B5LYJ9 (protein) MAKLLLFLLPAILGLLVPRSAVALGTNYLLSGQTLDTEGHLKNGDFDLVMQDDCNLVLYNGNWQSNTANNGRDCKLTLTDYGELVIKNGDGSTVWKSGAQSVKGNYAAVVHPDGRLVVLGPSVFKIDPWVRGLNSLRFRNIPFTNNLLFSGQVLYGDGRLTAKNHQLVMQGDCNLVLYGGKYGWQSNTHGNGEHCFLRLNHKGELIIKDDDFKTIWSSRSSSKQGEYVLILQDDGFGVIYGPAIFETSSKRSIAAS",
    "NUMERIC_RESULT": 0.124
  },
  {
    "BINDER": "Mincle (Bos taurus) (protein) MNSSTSPASQTERRCFSFQLFSWAIAGTSILLLSACFITRCVVTYSIFQLCDEKKFQPPGDSMELSCYNDGSGSVKNCCPLKWFHFQSSCYLFSPDTMSWRASLKNCSSMGAHLVVINTQEEQEFLYYTKPRKKEFYIGLTDQVTEGQWQWVDGTPFTKSLSFWDAGEPNNLVIVEDCATIRDSSNPRQNWNDVPCFFNMFRVCEMPERKI",
    "NUMERIC_RESULT": 0.104
  },
  {
    "BINDER": "XCL (Xerocomus chrysenteron) (protein) MSYSITLRVYQTNRDRGYFSIVEKTVWHFANGGTWSEANGAHTLTQGGSGTSGVLRFLSTKGERITVAVGVHNYKRWCDVVTGLKPDETALVINPQYYNNGGRDYVREKQLAEYSVTSAIGTKVEVVYTVAEGNNLEANVIFS",
    "NUMERIC_RESULT": 5.84
  },
  {
    "BINDER": "Tachylectin-2 (Tachypleus tridentatus), TAL2_TACTR (protein) VGGESMLRGVYQDKFYQGTYPQNKNDNWLARATLIGKGGWSNFKFLFLSPGGELYGVLNDKIYKGTPPTHDNDNWMGRAKKIGNGGWNQFQFLFFDPNGYLYAVSKDKLYKASPPQSDTDNWIARATEIGSGGWSGFKFLFFHPNGYLYAVHGQQFYKALPPVSNQDNWLARATKIGQGGWDTFKFLFFSSVGTLFGVQGGKFYEDYPPSYAHDNWLARAKLIGNGGWDDFRFLFF",
    "NUMERIC_RESULT": 3.96
  }
]
